Data credit: PubChem BioAssay (Tox21)

molecular target: KiSS-1 receptor (Homo sapiens) (UniProt Q969F8); experiment: Human kisspeptin (KISS1R) small molecule agonists, calcium flux assay in KISS1R-HEK293 cells (AID 1920064); settings: KISS1R-HEK293, calcium flux fluorescence, agonist; series mostly up to 76.8 µM
Sequence (Q969F8 whole entry, looked up): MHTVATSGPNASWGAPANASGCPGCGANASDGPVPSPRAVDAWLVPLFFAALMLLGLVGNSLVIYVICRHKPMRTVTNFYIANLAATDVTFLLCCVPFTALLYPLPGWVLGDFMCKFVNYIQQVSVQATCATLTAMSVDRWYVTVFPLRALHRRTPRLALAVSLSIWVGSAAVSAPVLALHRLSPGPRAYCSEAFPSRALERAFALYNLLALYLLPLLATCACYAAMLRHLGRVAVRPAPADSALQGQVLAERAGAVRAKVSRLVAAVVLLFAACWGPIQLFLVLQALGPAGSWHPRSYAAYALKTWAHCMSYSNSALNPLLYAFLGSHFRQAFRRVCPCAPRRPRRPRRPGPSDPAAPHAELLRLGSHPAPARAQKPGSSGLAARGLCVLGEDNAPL
The source made the active and inactive calls. Calls come from the whole dose curve; as a rule, active = well fitted activation curve with a large enough effect in the repeat runs; inconclusive = weak or mixed curves; inactive = flat fitted curve, though single readings scatter.
Parameter measured: activation

• CC(=O)OCC(=O)[C@@]1(O)CC[C@H]2[C@@H]3CCC4=CC(=O)CC[C@]4(C)[C@H]3C(=O)C[C@@]21C = inactive
• CC(=O)[C@]1(O)Cc2c(O)c3c(c(O)c2[C@@H](O[C@H]2C[C@H](N)[C@H](O)[C@H](C)O2)C1)C(=O)c1ccccc1C3=O = inactive
• CCCCCC1Nc2cc(C(F)(F)F)c(S(N)(=O)=O)cc2S(=O)(=O)N1 (stereo not given) = inactive
• CCCCNC(=O)NCCCC = inactive
• NC1(c2ccc(-c3nc4ccn5c(=O)[nH]nc5c4cc3-c3ccccc3)cc2)CCC1 = inactive
